These entries and their values trace back to the supplement of paper PMC11780869.

test system: Bacillus subtilis; assay: cleaved RNA product abundance (RNA/gDNA barcode ratio) relative to median wild-type variant (ratio to wild type); higher = more accumulation of the downstream cleavage product; details: experiment (reporter, strain, medium): exp 4a: truncated aprE reporter, strain BJT201 with 2% xylose (RNase J1 expressed); cleavage site: cggR-gapA (positions -7 to +36 mutated)
Measurement label: cleaved RNA product abundance
The answer should be a number; do not append a unit.

Example cases with answers are listed next.
ACAGACGAAGGAGCCGCAAAGAATTTATTAAGGGATGAATCATCCCTCAATATAAATATCTCTCACTTATTTAAA :: 0.545
ACAGACGAAGGAGCCGCAAAGAAGTTATTAACGGATGAATAATCCCTCAATATAAATATCTCTCACTTATTTAAA :: 0.177
ACAGACGAAGGAGCCGCAAAGAAGATATTAAGGGATGAATAATCCCTCAATATAAAGATCTCTCACTTATTTAAA :: 0.559
ACAGACGAAGGAGCCGCAAAGAAGCTATTATGGGATGAATAATCCCTCAATATAAATATCTCTCACTTATTTAAA :: 0.346
ACAGACGAAGGAGCCGCAATGAAGTTATTAAGGGATAAATAATCCCTCAATATAAATATCTCTCACTTATTTAAA :: 0.659
ACAGACGAAGGAGCCGCAAAAAAGTTATTAAGGGAAGAATAATCCCTCAATATAAATATCTCTCACTTATTTAAA :: 0.403
ACAGACGAAGGAGCCGCAAAGTAGTTATTAAGGGATGAATAATCCCTCAATCTAAATATCTCTCACTTATTTAAA :: 0.0783
ACAGACGAAGGAGCCGCAAACAAGTTATTAAAGGATGAATAATCCCTCATTATAAATATCTCTCACTTATTTAAA :: 0.115
ACAGACGAAGGAGCCGCAAAGAAGTTATTATGGGATGAATAATCCCTCAATATAAATATCTCTCACTTATTTAAA :: 0.407
ACAGACGAAGGAGCCGCAAATAAGTTAATAAGGGATGAATAATCCCTCAATATAAATATCTCTCACTTATTTAAA :: 0.343

Which cleaved RNA product abundance value belongs to ACAGACGAAGGAGCCGCAAAGAAATTATTTAGGGATGAATAATCCCTCAATATAAATATCTCTCACTTATTTAAA ?
0.718

Which cleaved RNA product abundance value belongs to ACAGACGAAGGAGCCGCAAAAAAGTTATTAAGGGATGAATAAACCCTCAATATAAATATCTCTCACTTATTTAAA ?
0.631

Which cleaved RNA product abundance value belongs to ACAGACGAAGGAGCCGCAAAGAAGTTATTAAGGGATAAATAATCCCTCAATATAAATTTCTCTCACTTATTTAAA ?
0.368

Which cleaved RNA product abundance value belongs to ACAGACGAAGGAGCCGCAAAGCAGTTATTAAGGGATGAATAATCCCTCAATATAAATATCTCTCACTTATTTAAA ?
0.958

Which cleaved RNA product abundance value belongs to ACAGACGAAGGAGCCGCAAAGAAGTTATAAAGGGATGAATAATCCCTCAATATAAATATCTCTCACTTATTTAAA ?
0.454

Which cleaved RNA product abundance value belongs to ACAGACGAAGGAGCCGCAAAGAAGTTATTAAGGGATTAATAATCCCTAAATATAAATATCTCTCACTTATTTAAA ?
0.745

Which cleaved RNA product abundance value belongs to ACAGACGAAGGAGCCGCAAAGAAGTTATTTAGGGATGAATAATCCCTGAATATAAATATCTCTCACTTATTTAAA ?
0.559

Which cleaved RNA product abundance value belongs to ACAGACGAAGGAGCCGCAAAGAATTTATTAAGGGATGAATAATCCCTCAATAGAAATATCTCTCACTTATTTAAA ?
0.0925

Which cleaved RNA product abundance value belongs to ACAGACGAAGGAGCCGCAAAGAAGTTATTAAGGGATGTATAATCCATCAATATAAATATCTCTCACTTATTTAAA ?
0.238

Which cleaved RNA product abundance value belongs to ACAGACGAAGGAGCCGCAAAGAAGTTATTACGTGATGAATAATCCCTCAATATAAATATCTCTCACTTATTTAAA ?
0.113

Which cleaved RNA product abundance value belongs to ACAGACGAAGGAGCCGCAAAGAAGTTCTTAAGGTATGAATAATCCCTCAATATAAATATCTCTCACTTATTTAAA ?
0.145

Which cleaved RNA product abundance value belongs to ACAGACGAAGGAGCCGCAAAGAACTTATTAAGGGATGAATAATCCCTAAATATAAATATCTCTCACTTATTTAAA ?
0.454

Which cleaved RNA product abundance value belongs to ACAGACGAAGGAGCCGCAAATAAGTTATTAAGGGATGAATAATCCCTCAATATAAATAACTCTCACTTATTTAAA ?
0.44
